System: Staphylococcus aureus
Assay: microbe, parasite or virus in culture
Format: functional
Description: Antibacterial activity against Staphylococcus aureus
Assign labels as follows, please: criterion met for MIC below 300 µg/mL; criterion not met for MIC equal to or exceeding 300 µg/mL.

INSERT INTO assay_data (compound, discretelabel) VALUES
  ('COc1ccc(-[n+]2noc([O-])c2CNc2nc3ccc(Cl)cc3s2)cc1', 'criterion met'),
  ('COc1ccc(-[n+]2noc([O-])c2Cn2c(-c3ccccc3Br)nc3ccccc32)cc1', 'criterion not met'),
  ('COc1ccc(-[n+]2noc([O-])c2Cn2c(-c3ccccc3[N+](=O)[O-])nc3ccccc32)cc1', 'criterion met'),
  ('COc1ccc(-[n+]2noc([O-])c2CNc2nc3ccc(Br)cc3s2)cc1', 'criterion met'),
  ('COc1ccc(-[n+]2noc([O-])c2CNc2nc3ccc(C)cc3s2)cc1', 'criterion met'),
  ('CC1(C)S[C@@H]2[C@H](NC(=O)Cc3ccccc3)C(=O)N2[C@H]1C(=O)O [PENICILLIN G]', 'criterion met'),
  ('COc1ccc(-[n+]2noc([O-])c2Cn2c(-c3ccc(Cl)cc3Cl)nc3ccccc32)cc1', 'criterion not met'),
  ('COc1ccc(-[n+]2noc([O-])c2CNc2nc3ccc(C#N)cc3s2)cc1', 'criterion met'),
  ('CCOc1ccc2nc(NCc3c([O-])on[n+]3-c3ccc(OC)cc3)sc2c1', 'criterion met'),
  ('COc1ccc(-[n+]2noc([O-])c2Cn2c(-c3ccc([N+](=O)[O-])cc3)nc3ccccc32)cc1', 'criterion not met'),
  ('CN[C@@H]1[C@H](O[C@H]2[C@H](O[C@H]3[C@H](O)[C@@H](O)[C@H](N=C(N)N)[C@@H](O)[C@@H]3N=C(N)N)O[C@@H](C)[C@]2(O)C=O)O[C@@H](CO)[C@H](O)[C@H]1O [STREPTOMYCIN]', 'criterion met');
